MEASUREMENT TARGET: CYP2B6 (Homo sapiens)
Construct: from tissue; host or cells: human liver microsomes
Sequence (P20813 whole entry): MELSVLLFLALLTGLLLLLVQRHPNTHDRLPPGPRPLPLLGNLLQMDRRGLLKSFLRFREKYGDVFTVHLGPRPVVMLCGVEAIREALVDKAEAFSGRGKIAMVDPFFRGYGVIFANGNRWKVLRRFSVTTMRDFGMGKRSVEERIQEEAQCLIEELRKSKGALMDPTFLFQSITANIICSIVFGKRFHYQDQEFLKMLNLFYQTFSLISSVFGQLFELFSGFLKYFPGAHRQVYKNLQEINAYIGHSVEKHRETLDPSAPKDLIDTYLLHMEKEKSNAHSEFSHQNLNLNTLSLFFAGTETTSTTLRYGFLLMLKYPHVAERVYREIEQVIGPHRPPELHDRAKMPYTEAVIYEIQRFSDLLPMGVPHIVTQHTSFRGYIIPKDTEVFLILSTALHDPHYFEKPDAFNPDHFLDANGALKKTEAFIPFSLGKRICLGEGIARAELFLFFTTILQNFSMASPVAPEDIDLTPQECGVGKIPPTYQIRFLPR
PROCEDURE TEXT: CYP2B6 inhibition in human liver microsomes
Format: in vitro ADME
Structures can show the parent of a compound that is named as a salt.
ENDPOINT: IC50 (µM)
Response body: numeric value in µM, unit text excluded.

Ask: Could you please provide reported IC50 for C[C@@H]1Cc2c([nH]c3ccccc23)[C@@H](c2c(F)cc(NC3CN(CCCF)C3)cc2F)N1CC(F)(F)CO [Compound B, tartrate] ? Thanks!
Reply: 13

###

PROCEDURE TEXT: Approximate solubility of Compound B Form B material in 20 solvents at RT
Format: physicochemical
APPLIED CONDITIONS: organic solvent or mixture, thermodynamic from solid, MEK
Counter-ions that a name gives are not always drawn.
ENDPOINT: solubility

Ask: Could you please provide reported solubility for C[C@@H]1Cc2c([nH]c3ccccc23)[C@@H](c2c(F)cc(NC3CN(CCCF)C3)cc2F)N1CC(F)(F)CO [Compound B, tartrate] ? Thanks!
Reply: < 2000 µg/mL
